assay summary: in vitro
conditions: mouse
Field: IC50 at 72 h. Provide a value for each of the compounds that follow.

Bench note: what IC50 at 72 h did C=C(C)C1CCC2(COC(=O)C=C(C)C(=O)N3CCSCC3)CCC3(C)C(CCC4C5(C)CCC(O)C(C)(C)C5CCC43C)C12 (stereo not drawn) [3d] show?
> 50 µM

Could you do the same for C=C(C)[C@@H]1CC[C@]2(COC(=O)CCC(=O)N3CCSCC3)CC[C@]3(C)C(CCC4[C@@]5(C)CC[C@H](O)C(C)(C)C5CC[C@]43C)C12 (stereo partly drawn) [2d] , please?
> 50 µM

Could you do the same for C=C(C)[C@@H]1CC[C@]2(COC(=O)CCCC(=O)N3CCSCC3)CC[C@]3(C)C(CCC4[C@@]5(C)CC[C@H](O)C(C)(C)C5CC[C@]43C)C12 (stereo partly drawn) [4d] , please?
> 50 µM
